// provenance: paper PMC10280016

System: SARS-CoV-2 strain G614
Experiment: microbe, parasite or virus in culture
Format: cell-based
Settings: Severe acute respiratory syndrome coronavirus 2, 24 h, read-out: Anti-SARS-CoV-2 activity, spike immunostaining assay (IC50 ± SD)
pIC50: −log10 of the molar value.
The molecules listed here are annotated with their pIC50.
measurement.type: pIC50

>  <molecule>
COc1cc(O)c2c(=O)c(-c3ccc(O)cc3)coc2c1 [Compound 11, 7-O-methylgenistein]

>  <qualifier.sign>
=

>  <value.reported>
4.42

$$$$
>  <molecule>
COc1cc(O)c2c(=O)c(-c3ccc(O)c(O)c3)coc2c1 [Compound 13, santal]

>  <qualifier.sign>
=

>  <value.reported>
4.13

$$$$
>  <molecule>
COc1ccc2c(c1)OC[C@H]1c3cc4c(cc3O[C@@H]21)OCO4 [Compound 6, (−)-pterocarpin]

>  <qualifier.sign>
<

>  <value.reported>
4.00

$$$$
>  <molecule>
CCC(CC)COC(=O)[C@H](C)N[P@](=O)(OC[C@H]1O[C@@](C#N)(c2ccc3c(N)ncnn23)[C@H](O)[C@@H]1O)Oc1ccccc1 [remdesivir, reference compound]

>  <qualifier.sign>
=

>  <value.reported>
6.77

$$$$
>  <molecule>
COc1ccc([C@@H]2COc3cc(OC)ccc3C2=O)cc1 [Compound 23, (+)-7,4′-di-O-methyldihydrodaidzein]

>  <qualifier.sign>
=

>  <value.reported>
4.27

$$$$
>  <molecule>
COc1ccc(-c2coc3cc(O)cc(O)c3c2=O)c(OC)c1O [Compound 14, khrinone C]

>  <qualifier.sign>
<

>  <value.reported>
4.00

$$$$
>  <molecule>
COc1ccc2c(c1)OC[C@H]1c3cc(O)c(OC)cc3O[C@@H]21 [Compound 7, (−)-8-hydroxyhomopterocarpan]

>  <qualifier.sign>
<

>  <value.reported>
4.00

$$$$
